molecular target: C-terminal-binding protein 1 (Homo sapiens); test: qHTS for Inhibitors of the Phosphatase Activity of Eya2: Carboxyl-terminal binding protein (CtBP) Counterscreen for Cherry-picked Compounds; details: purified protein-protein binding, AlphaScreen, 3 h; series mostly up to 46.1 µM; note: nearly all actives have a fitted effect of over 65% in size
Among all 1,300 compounds or so, about 420 (32%) were called active. Inconclusive results (about 32%) are left out. Calls come from the whole dose curve; as a rule, active = well fitted inhibition curve with a large enough effect; inconclusive = small, poorly fitted or top-dose-only effect; inactive = no such curve, though single readings can be large or run the other way. The list shows a part of the results.
// one of 1 (yes) = active, 0 (no) = inactive, no free text

These recorded examples may help you get a feel for the data.
{"molecule": "NNC(=O)c1nc[nH]c1C(=O)Nc1ccccn1", "system-name": "C-terminal-binding protein 1 (Homo sapiens)", "label-class": "1 (yes)"}
{"molecule": "COc1ccccc1OCC(=O)Nc1ccc(C(=O)Nc2ccccc2C(=O)O)cc1", "system-name": "C-terminal-binding protein 1 (Homo sapiens)", "label-class": "1 (yes)"}
{"molecule": "O=C(O)CCc1c2ccc(=O)c(O)c-2oc2c(O)c(O)ccc12", "system-name": "C-terminal-binding protein 1 (Homo sapiens)", "label-class": "1 (yes)"}
{"molecule": "CN(C)c1ccc(/C=C2\\C=Cc3ccccc32)cc1[N+](=O)[O-]", "system-name": "C-terminal-binding protein 1 (Homo sapiens)", "label-class": "1 (yes)"}
{"molecule": "CNc1ccc(C=C2c3ccccc3-c3ccccc32)cc1", "system-name": "C-terminal-binding protein 1 (Homo sapiens)", "label-class": "1 (yes)"}
{"molecule": "CN(C)c1ccc(/C=C2\\c3ccccc3-c3ccc(N(C)C)cc32)cc1", "system-name": "C-terminal-binding protein 1 (Homo sapiens)", "label-class": "1 (yes)"}
{"molecule": "O=C(Nc1ccc(F)cc1)c1nc[nH]c1C(=O)O", "system-name": "C-terminal-binding protein 1 (Homo sapiens)", "label-class": "1 (yes)"}
{"molecule": "CCOC(=O)c1ccc(NC(=O)c2nc[nH]c2C(=O)N[C@@H](Cc2ccccc2)C(=O)OC(C)(C)C)cc1", "system-name": "C-terminal-binding protein 1 (Homo sapiens)", "label-class": "0 (no)"}

In this assay, the call recorded for Cc1ccc(CNC(=O)C2CCN(S(=O)(=O)c3ccc4nc5c(c(C(=O)O)c4c3)CC(C)CC5)CC2)cc1 (configuration not stated) was what? 1 (yes)

Proceed to "Cc1cc(/C=C2\C=Cc3ccccc32)ccc1N(C)C" 1 (yes)

Further, for "O=c1oc(-c2ccco2)nc2ccccc12" ? 1 (yes)

For "Cc1cc(NC(=O)c2cccc(N3C(=O)CCC3=O)c2)no1" then? 0 (no)

Moving on to the next molecule: "COc1ccc(Nc2cc(C(=O)N3CCc4ccccc4C3)c3ccccc3n2)c(OC)c1" 0 (no)

And for "CN(C)c1ccc(/C=C2\C(Cl)=Cc3ccccc32)cc1" ? 1 (yes)

Entry to check: CCC(=O)N1c2ccc(S(=O)(=O)N3CCN(c4ccc([N+](=O)[O-])cc4)CC3)cc2CC1C (configuration not stated) 0 (no)

What about this molecule? "O=C(C[n+]1ccccc1)c1ccc(O)c(O)c1" 0 (no)

Similarly, "Cc1cc2nc(/N=C(\N)NC(=O)N3c4ccccc4Sc4ccccc43)nc(C)c2cc1C" ? 0 (no)

Same again, this time with "CN(C)c1ccc(/C=C2\C=Cc3ccccc32)cc1N" 1 (yes)

Note, next up: "COc1ccc2cc(C(=O)N3CCN(c4ccc(F)cc4)CC3)[nH]c2c1" 0 (no)

Same question, "O=C(Nc1ccc(F)cc1)c1ccc2[nH]c(=O)c(=O)[nH]c2c1" this time 1 (yes)

// same read-out, input: "O=C(NC1=C(Nc2ccc(F)cc2)C(=O)c2ccccc2C1=O)c1ccc(Cl)cc1" 0 (no)

Please answer likewise for "Cc1ccc(NC(=O)c2ccc3[nH]c(=O)c(=O)[nH]c3c2)nc1" 1 (yes)

Taken from PubChem BioAssay AID720541.
